These entries and their values trace back to ChEMBL document CHEMBL4368911.

The reader will find reported IC50 values listed item by item below.
Target: Lactoylglutathione lyase (Homo sapiens)
Sequence (Q04760 whole entry, the tested form may be a part): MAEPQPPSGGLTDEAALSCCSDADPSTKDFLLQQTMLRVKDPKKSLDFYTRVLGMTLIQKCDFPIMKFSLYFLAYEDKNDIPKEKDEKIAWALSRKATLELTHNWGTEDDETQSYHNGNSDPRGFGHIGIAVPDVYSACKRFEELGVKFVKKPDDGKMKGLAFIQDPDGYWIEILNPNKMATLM
Assay: Inhibition recombinant human N-terminal 6His-tagged GLO1 (2 to 184 residues) expressed in Escherichia coli using MG as substrate preincubated for 15 to 20 mins followed by substrate addition and measured every 1 min for 8 mins
# number only, unit µM dropped from output

1. COc1ccc(S(=O)(=O)Nc2cccc3cccnc23)cc1; 7
2. O=S(=O)(CCCc1ccccc1)Nc1cccc2cccnc12; 4.6
3. COc1cccc(-c2ccc(NS(=O)(=O)c3ccccn3)c3ncccc23)c1; 1.04

State the recorded IC50 for this entry: O=S(=O)(Nc1cccc2cccnc12)c1ccc2ccccc2c1 3.6

Lookup O=S(=O)(Nc1cccc2cccnc12)c1cccs1 4.9
